Values from patent US20220235006A1

- TARGET: human TMEM16A (TMEM16Aabc variant) (Homo sapiens, UniProt Q5XXA6, DEL476-501)
- Sequence (Q5XXA6 with tags, fused parts or gaps isoform Q5XXA6-5 DEL539-564): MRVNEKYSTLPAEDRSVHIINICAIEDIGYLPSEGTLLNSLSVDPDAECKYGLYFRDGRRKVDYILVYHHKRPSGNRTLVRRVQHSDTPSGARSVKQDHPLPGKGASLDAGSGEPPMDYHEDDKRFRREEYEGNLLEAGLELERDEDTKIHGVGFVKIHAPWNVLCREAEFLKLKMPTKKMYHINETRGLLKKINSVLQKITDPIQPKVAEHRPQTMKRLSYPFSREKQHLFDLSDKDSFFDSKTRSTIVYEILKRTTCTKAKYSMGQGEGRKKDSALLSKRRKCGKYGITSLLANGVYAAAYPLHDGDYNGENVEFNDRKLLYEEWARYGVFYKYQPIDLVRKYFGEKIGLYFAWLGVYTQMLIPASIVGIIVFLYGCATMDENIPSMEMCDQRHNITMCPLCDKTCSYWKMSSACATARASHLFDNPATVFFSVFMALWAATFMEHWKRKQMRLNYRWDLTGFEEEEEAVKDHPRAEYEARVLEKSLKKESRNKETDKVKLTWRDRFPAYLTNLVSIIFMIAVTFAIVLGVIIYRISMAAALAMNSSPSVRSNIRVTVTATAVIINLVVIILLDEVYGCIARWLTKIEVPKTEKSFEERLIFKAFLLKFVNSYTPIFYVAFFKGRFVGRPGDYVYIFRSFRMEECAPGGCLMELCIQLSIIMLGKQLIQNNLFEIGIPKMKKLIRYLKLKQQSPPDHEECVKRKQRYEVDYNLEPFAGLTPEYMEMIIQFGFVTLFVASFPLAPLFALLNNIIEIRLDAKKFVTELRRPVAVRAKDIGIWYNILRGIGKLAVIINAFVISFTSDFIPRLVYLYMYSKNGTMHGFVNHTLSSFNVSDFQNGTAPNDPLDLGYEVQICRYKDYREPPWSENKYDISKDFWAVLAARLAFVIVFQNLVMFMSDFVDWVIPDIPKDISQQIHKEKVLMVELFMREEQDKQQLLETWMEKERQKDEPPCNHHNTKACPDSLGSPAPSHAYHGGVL
- PROTOCOL: Automated whole-cell patch clamp (Qpatch) TMEM16A potentiator assay in recombinant FRT cells
- Format: cell-based
- REPORTED CONDITIONS: 3.33 uM, percentage increase of baseline TMEM16A current, minimum n = 2, read-out: % Potentiation @ 3.33 uM Avg
PARAMETER MEASURED: activation at 3.33 µM (%)

# MOLECULE, TARGET, activation at 3.33 µM, %
measured = [
    ("CC(CO)c1cc(F)c(CC(=O)Nc2ccnc(C(=O)NC3(C(F)(F)F)CC3)c2)cc1O (stereo not shown) [Example 20]", "human TMEM16A (TMEM16Aabc variant) (Homo sapiens, UniProt Q5XXA6, DEL476-501)", 295),
    ("C=C(C)c1cc(F)c(CC(=O)Nc2ccnc(C(=O)NC3(C(F)(F)F)CC3)c2)cc1O [Example 7.1]", "human TMEM16A (TMEM16Aabc variant) (Homo sapiens, UniProt Q5XXA6, DEL476-501)", 433),
]

P. O=C(Cc1cc(O)c(C2(CO)CCOCC2)cc1F)Nc1ccnc(C(=O)NC2(C(F)(F)F)CC2)c1 [Example 2.15]
Q. CC1(NC(=O)c2cc(NC(=O)Cc3cc(O)c(C(C)(C)C)cc3F)ccn2)CC1 [Example 1]
Could you check which of P and Q has a smaller value for activation at 3.33 µM? I would appreciate it if you answered with the label of your choice.
Q
(Q: 248%, P: 413%)
